# TESTED_ON: Ubiquitin carboxyl-terminal hydrolase 1 (Homo sapiens)
# ASSAY_PROCEDURE: Inhibitors of USP1/UAF1: Pilot qHTS (AID 504865); also: nearly all actives have a fitted effect of over 35% in size
# STATED_CONDITIONS: purified USP1/UAF1, Ub-rhodamine cleavage fluorescence; series mostly up to 114 µM
Results filed as inconclusive are left out. Calls of active or inactive are those of the source. Calls follow the shape of the dose curve; as a rule, active = well fitted inhibition curve with a large enough effect; inconclusive = small, poorly fitted or top-dose-only effect; inactive = flat fitted curve, though single readings scatter.
Answer with one of the outcomes active, inactive

input: What did the test return for C[N+]1(C)CCC(OC(=O)C(c2ccccc2)c2ccccc2)CC1 ?
output: inactive

input: Follow-up item: Cn1cc(C2=C(c3ccc(Cl)cc3Cl)C(=O)NC2=O)c2ccccc21
output: active

input: Follow-up item: OC[C@H]1O[C@@H](n2cnc3c(NC4CCCC4)ncnc32)[C@H](O)[C@@H]1O
output: inactive

input: Follow-up item: OC[C@H]1O[C@@H](n2cnc3c(NC4CCCCC4)ncnc32)[C@H](O)[C@@H]1O
output: inactive

input: Follow-up item: O=C(O)COc1ccc(C(=O)c2cccs2)c(Cl)c1Cl
output: inactive

input: Follow-up item: CCCCCCCCCCCCCCCC(=O)OC(CC(=O)O)C[N+](C)(C)C (stereo not drawn)
output: active

input: Follow-up item: NC(=S)c1ccc[n+]([C@@H]2O[C@@H](COP(=O)([O-])OP(=O)(O)OC[C@H]3O[C@@H](n4cnc5c(N)ncnc54)[C@H](OP(=O)(O)O)[C@@H]3O)C(O)C2O)c1 (stereo partly drawn)
output: inactive

input: Follow-up item: [O-][n+]1ccccc1SSc1cccc[n+]1[O-]
output: inactive

input: Follow-up item: NCCCCC(=O)O
output: inactive

input: Follow-up item: C[C@@H](NC(=O)/C(C#N)=C/c1ccc(O)c(O)c1)c1ccccc1
output: inactive

input: Follow-up item: CN(C)CCC(c1ccc(Cl)cc1)c1ccccn1 (stereo not drawn)
output: inactive

input: Follow-up item: CCCCN1CCC(n2c(=O)[nH]c3ccccc32)CC1
output: inactive

input: Follow-up item: COc1cccc(OC)c1OCCNCC1COc2ccccc2O1 (stereo not drawn)
output: inactive

input: Follow-up item: CC(N)C(=O)OC(C)(C)Cc1ccc(Cl)cc1 (stereo not drawn)
output: inactive

input: Follow-up item: O=C1CN(/N=C/c2ccc(-c3ccc([N+](=O)[O-])cc3)o2)C(=O)N1
output: inactive

input: Follow-up item: Cc1cc(NC2CCCCC2)nc(-n2nc(C)cc2C)n1
output: inactive

input: Follow-up item: COc1cc2c(CCNC(C)=O)c[nH]c2cc1Cl
output: inactive

input: Follow-up item: Cc1ccc(O)c(-n2nc3ccccc3n2)c1
output: inactive

input: Follow-up item: CCCSc1ccc2nc(NC(=O)OC)[nH]c2c1
output: inactive

input: Follow-up item: CSc1nc(N)c2ncn([C@@H]3O[C@H](COP(=O)(O)OP(=O)(O)OP(=O)(O)O)[C@@H](O)[C@H]3O)c2n1
output: inactive

input: Follow-up item: CC(=O)/C=C1\C(=O)N(C)c2ccccc21
output: inactive

input: Follow-up item: O=C(O)CCCC[C@@H]1CCSS1
output: inactive

input: Follow-up item: CN=c1nc(-c2ccccc2)n(-c2ccccc2)s1
output: inactive

Where do these numbers come from? They come from PubChem BioAssay (NCATS).
